Target: T1, cynomolgus HER3 antigen (cynomolgus monkey, UniProt G7PIG5 20-643)
T1 construct: In-house antigen; also called cynomolgus antigen
T1 sequence (G7PIG5 entry or part of it): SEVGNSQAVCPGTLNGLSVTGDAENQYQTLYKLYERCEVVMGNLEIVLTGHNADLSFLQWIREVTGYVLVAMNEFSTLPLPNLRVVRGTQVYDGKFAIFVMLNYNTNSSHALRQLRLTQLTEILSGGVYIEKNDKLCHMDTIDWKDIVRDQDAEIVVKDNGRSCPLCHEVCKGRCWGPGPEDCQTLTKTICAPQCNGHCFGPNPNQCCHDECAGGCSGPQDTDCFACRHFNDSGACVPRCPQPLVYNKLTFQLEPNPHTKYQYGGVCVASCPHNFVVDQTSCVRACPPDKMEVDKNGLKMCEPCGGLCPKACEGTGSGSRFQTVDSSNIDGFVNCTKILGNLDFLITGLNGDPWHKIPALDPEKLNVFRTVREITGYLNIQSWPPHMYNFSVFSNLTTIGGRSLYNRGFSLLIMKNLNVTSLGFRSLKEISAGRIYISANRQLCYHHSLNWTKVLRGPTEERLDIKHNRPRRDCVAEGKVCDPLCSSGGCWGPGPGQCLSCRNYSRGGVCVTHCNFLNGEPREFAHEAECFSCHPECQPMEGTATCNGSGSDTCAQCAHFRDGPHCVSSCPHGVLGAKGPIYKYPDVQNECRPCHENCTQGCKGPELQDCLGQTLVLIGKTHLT
Test: SPR (ProteOn XPR36), IgG captured by anti-human Fc, soluble monovalent antigen, 1:1 fit
Observation Type: Kd

INSERT INTO measurements (binder, observation_type, observed) VALUES
  ('chimeric anti-HER3 antibody 5082 (antibody, V domains shown, light chain entry is full length) VH: EVQLKESGPGLVKPSQSLSLTCSVTGYSITSAYYWNWIRQFPGNKVEWMGYIGYDGRNTYNPSLKNRISITRDTSKNQFFLKLNSLTTEDTATYYCSREGDYGYSDYWGQGTTLTVS VL: DIVMTQATSSLSASLGDRVTVSCRASQDINNYLNWYQQKPDGTVKLLIYYTSRLQSGVPSRFSGSGSGIDYSLTISNLEQEDFVTYFCQQSETLPWTFGGGTKLELKR', 'Kd', '98 pM'),
  ('humanized anti-HER3 antibody 11052 (antibody, V domains shown) VH: QVQLQESGPGLVKPSQTLSLTCTVSGYSITSAYYWNWIRQFPGKGVEWMGYIGYSGRNTYNPSLKNRVTISRDTSKNQFSLKLSSVTAADTAVYYCSREGDYGYSDYWGQGTLVTVSS VL: DIQMTQSPSSLSASVGDRVTVTCRASQDINNYLNWYQQKPGKAVKLLIYYTSRLQSGVPSRFSGSGSGTDYTLTISSLQPEDFATYFCQQSETLPWTFGQGTKLEIK', 'Kd', '190 pM'),
  ('humanized anti-HER3 antibody 10810 (antibody, V domains shown) VH: QVQLQESGPGLVKPSQTLSLTCTVSGYSITSGFYWTWIRQHPGNGLEWIGFISYSGSNNYNPSLKNRVTISVDTSKNQFSLKLSSVTAADTATYYCARGGGYYGNLFDYWGQGTLVTVSS VL: DIQMTQSPSSLSASVGDRVTITCRPSQDISNYVNWFQQKPGKAPKLLIFHTSRLHSGVPSRFSGSGSGTDFTLTISSLQPEDIATYYCQQGITLPWTFGQGTKVEIK', 'Kd', '710 pM'),
  ('humanized anti-HER3 antibody 11006 (antibody, V domains shown) VH: QVQLQESGPGLVKPSQTLSLTCTVSGYSITSAYYWNWIRQHPGKGVEWMGYIGYSGRNTYNPSLKNRVTISRDTSKNQFSLKLSSVTAADTAVYYCSREGDYGYSDYWGQGTLVTVSS VL: DIQMTQSPSSLSASVGDRVTVTCRASQDTNNYLNWYQQKPGKAVKLLIYYTSRLQSGVPSRFSGSGSGTDFTLTISSLQPEDFATYFCQQSETLPWTFGQGTKVEIK', 'Kd', '59 pM'),
  ('chimeric anti-HER3 antibody 5038 (antibody, V domains shown, light chain entry is full length) VH: EVKLVESGPGLVKPSQSLSLTCSVTGYSITSGFYWTWIRQFPGNKLEWMGFISYDGSNNYNPSLKNRISITRDTSKNQFFLKLNSVTTEDTATYYCARGGGYYGNLFDYWGQGTTLTVS VL: DIVMTQTTSSLSASLGDRVTISCRPSQDISNYVNWFQQKPGGTVKLLIFHTSRLHSGVPSRFSGSGSGTDYSLTISTLEQEDIAIYFCQQGITLPWTFGGGTKLEIKR', 'Kd', '890 pM');

Next, consider the following binder.
For reference, reported Kd for humanized anti-HER3 antibody 10738 (antibody, V domains shown) VH: QVQLQESGPGLVKPSQTLSLTCTVSGYSITSGFYWTWIRQHPGKGLEWMGFISYSGSNNYNPSLKNRITISVDTSKNQFSLKLSSVTAADTAVYYCARGGGYYGNLFDYWGQGTLVTVSS VL: DIQMTQSPSSLSASVGDRVTITCRPSQDISNYVNWFQQKPGKAVKLLIFHTSRLHSGVPSRFSGSGSGTDFTFTISSLQPEDIAIYYCQQGITLPWTFGQGTKVEIK stands at 540 pM
